Answer each item with its documented IC50.
# system: menin-MLL interaction (Homo sapiens)
# Sequence (O00255 whole entry): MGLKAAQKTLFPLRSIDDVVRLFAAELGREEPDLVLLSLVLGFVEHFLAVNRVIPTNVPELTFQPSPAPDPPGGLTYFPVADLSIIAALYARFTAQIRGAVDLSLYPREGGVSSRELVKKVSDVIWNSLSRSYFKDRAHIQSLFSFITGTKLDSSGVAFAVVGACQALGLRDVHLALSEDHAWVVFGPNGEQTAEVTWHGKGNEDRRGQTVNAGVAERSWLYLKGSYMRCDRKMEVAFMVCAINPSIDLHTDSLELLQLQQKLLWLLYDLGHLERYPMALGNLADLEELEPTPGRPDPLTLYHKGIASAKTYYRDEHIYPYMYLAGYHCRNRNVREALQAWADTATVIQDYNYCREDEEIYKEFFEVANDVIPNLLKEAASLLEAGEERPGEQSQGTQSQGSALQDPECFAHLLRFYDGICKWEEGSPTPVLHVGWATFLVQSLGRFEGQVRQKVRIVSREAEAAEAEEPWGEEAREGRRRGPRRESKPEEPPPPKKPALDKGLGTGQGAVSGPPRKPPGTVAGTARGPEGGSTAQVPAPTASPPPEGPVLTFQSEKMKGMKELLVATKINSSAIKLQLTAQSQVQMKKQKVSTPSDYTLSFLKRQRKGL
# assay name: biochemical

Qu. Value lookup for IC50; key = N#Cc1nc2cc(CN3CCC(Nc4ncnc5sc(CC(F)(F)F)cc45)CC3)ccc2[nH]1
Ans. 0.5 to 2 µM

Qu. Value lookup for IC50; key = CCCCC(O)(CO)Cn1c(C#N)cc2cc(CN3CCC(Nc4ncnc5sc(CC(F)(F)F)cc45)CC3)ccc21 (stereo not shown)
Ans. < 0.1 µM

Qu. Value lookup for IC50; key = Cc1c(CN2CCC(Nc3ncnc4sc(CC(F)(F)F)cc34)CC2)ccc2c1cc(C#N)n2Cc1cn[nH]c1
Ans. < 0.1 µM

Qu. Value lookup for IC50; key = Cc1c(CN2CCC(Nc3ncnc4sc(CC(F)(F)F)cc34)CC2)c(O)cc2[nH]c(C#N)cc12
Ans. < 0.1 µM

Qu. Value lookup for IC50; key = FC(F)(F)Cc1cc2c(NC3CCN(Cc4cccs4)CC3)ncnc2s1
Ans. 0.1 to 0.5 µM

Qu. Value lookup for IC50; key = CCC(=O)N1CCN(CCCn2c(C#N)cc3cc(CN4CCC(Nc5ncnc6sc(CC(F)(F)F)cc56)CC4)ccc32)CC1
Ans. < 0.1 µM

Qu. Value lookup for IC50; key = Cc1nnc(Cn2c(C#N)cc3c(C)c(CN4CCC(Nc5ncnc6sc(CC(F)(F)F)cc56)CC4)ccc32)o1
Ans. < 0.1 µM

====

# system: menin-MLL interaction (Homo sapiens)
# assay name: biochemical
pIC50: −log10 of the molar value.
measurement type: pIC50

Qu. Request body: readout pIC50, system menin-MLL interaction (Homo sapiens), query COc1ccc(CC(=O)N2CCN(c3ncnc4sc(CC(F)(F)F)cc34)CC2)cc1 . Return the value.
Ans. 6.30 to 7.00

Qu. Request body: readout pIC50, system menin-MLL interaction (Homo sapiens), query N#Cc1cc2cc(CN3CCC(Nc4ncnc5sc(CC(F)(F)F)cc45)CC3)ccc2n1CCn1cncn1 . Return the value.
Ans. > 7.00

Qu. Request body: readout pIC50, system menin-MLL interaction (Homo sapiens), query Cc1c(CN2CCC(Nc3ncnc4sc(CC(F)(F)F)cc34)CC2)ccc2c1cc(C#N)n2CCN1CCN(CC(N)=O)CC1 . Return the value.
Ans. > 7.00

Qu. Request body: readout pIC50, system menin-MLL interaction (Homo sapiens), query CS(=O)(=O)N(CC(N)=O)c1ccc(CC(=O)N2CCN(C3=NC=NC4SC(CC(F)(F)F)=CC34)CC2)c(Cl)c1 (stereo not drawn) . Return the value.
Ans. 6.30 to 7.00

Qu. Request body: readout pIC50, system menin-MLL interaction (Homo sapiens), query O=C(Cc1ccc(NS(=O)(=O)N2CCOCC2)cc1)N1CCN(c2ncnc3sc(CC(F)(F)F)cc23)CC1 . Return the value.
Ans. > 7.00

Qu. Request body: readout pIC50, system menin-MLL interaction (Homo sapiens), query Cc1cn[nH]c1Cn1c(C#N)cc2c(C)c(CN3CCC(Nc4ncnc5sc(CC(F)(F)F)cc45)CC3)ccc21 . Return the value.
Ans. > 7.00

Qu. Request body: readout pIC50, system menin-MLL interaction (Homo sapiens), query OCCCN(c1ncnc2sc(CC(F)(F)F)cc12)C1CCN(Cc2ccccc2)CC1 . Return the value.
Ans. 6.30 to 7.00

Qu. Request body: readout pIC50, system menin-MLL interaction (Homo sapiens), query Cc1nnc(Cn2c(C#N)cc3c(C)c(CN4CCC(Nc5ncnc6sc(CC(F)(F)F)cc56)CC4)ccc32)s1 . Return the value.
Ans. > 7.00

Qu. Request body: readout pIC50, system menin-MLL interaction (Homo sapiens), query Cc1c(CN2CCC(Nc3ncnc4sc(CC(F)(F)F)cc34)CC2)ccc2c1cc(C#N)n2CC(O)CN1CCNCC1 (stereo not drawn) . Return the value.
Ans. > 7.00

Qu. Request body: readout pIC50, system menin-MLL interaction (Homo sapiens), query CC(=O)NCCn1c(C#N)cc2cc(CN3CCC(Nc4ncnc5sc(CC(F)(F)F)cc45)CC3)ccc21 . Return the value.
Ans. > 7.00

Qu. Request body: readout pIC50, system menin-MLL interaction (Homo sapiens), query N#Cc1cc2ccc(CN3CCC(Nc4ncnc5sc(CC(F)(F)F)cc45)CC3)cc2[nH]1 . Return the value.
Ans. 6.30 to 7.00

Qu. Request body: readout pIC50, system menin-MLL interaction (Homo sapiens), query CCc1ccc(CN2CCC(Nc3ncnc4sc(CC(F)(F)F)cc34)CC2)cc1 . Return the value.
Ans. 6.30 to 7.00

Qu. Request body: readout pIC50, system menin-MLL interaction (Homo sapiens), query COc1ccc(CN2CCC(CNc3ncnc4sc(CC(F)(F)F)cc34)CC2)c(Cl)c1 . Return the value.
Ans. 6.30 to 7.00

Qu. Request body: readout pIC50, system menin-MLL interaction (Homo sapiens), query CN(C)S(=O)(=O)Nc1ccc(CC(=O)N2CCN(c3ncnc4sc(CC(F)(F)F)cc34)CC2)cc1 . Return the value.
Ans. > 7.00

Qu. Request body: readout pIC50, system menin-MLL interaction (Homo sapiens), query Cc1c(CN2CCC(Nc3ncnc4sc(CC(F)(F)F)cc34)CC2)ccc2c1cc(C#N)n2CCN1CCN[C@@H](C)C1 . Return the value.
Ans. > 7.00
